Quick reference: PEAK INTENSITY of the listed items.
Test system: Alkaline phosphatase
Assay: Peak light intensity of dephosphorylated dioxetanes
Format: biochemical
Details: 0.004 mM dioxetane, 30° C., 0.1M diethanolamine, 1 mM MgCl2, pH 10; alkaline phosphatase 1.05×10^-9 M

compound: O=P(O)(O)Oc1cccc(C2(OCC(F)(F)F)OOC23C2CC4CC(C2)CC3C4)c1 (centres unmarked)
target.system: Alkaline phosphatase
PEAK INTENSITY, RLU: 282

compound: COC1(c2cccc(OP(=O)(O)O)c2)OOC12C1CC3CC2CC(Cl)(C3)C1 (centres unmarked)
target.system: Alkaline phosphatase
PEAK INTENSITY, RLU: 200

compound: O=P(O)(O)Oc1cc(C2(OCC(F)(F)F)OOC23C2CC4CC(C2)CC3C4)ccc1Cl (centres unmarked)
target.system: Alkaline phosphatase
PEAK INTENSITY, RLU: 390

compound: COC1(c2ccc(Cl)c(OP(=O)(O)O)c2)OOC12C1CC3CC(C1)CC2C3 (centres unmarked)
target.system: Alkaline phosphatase
PEAK INTENSITY, RLU: 682

compound: COC1(c2ccc(Cl)c(OP(=O)(O)O)c2)OOC12C1CC3CC2CC(Cl)(C3)C1 (centres unmarked)
target.system: Alkaline phosphatase
PEAK INTENSITY, RLU: 863
